Cited source for all entries: the NIST ThermoML archive (doi:10.1021/je050183a)

- setup_conditions: 288.15 K; 101 kPa; Liquid; Pycnometric method
value_type: mass density (kg/m3)
The answer is to be given in kg/m3; state only the numeric part.

Check out these entries, answers already filled in.
CCOC(=O)OCC [diethyl carbonate] : 980.41
CC1COC(=O)O1 (centres undefined) [4-methyl-1,3-dioxolan-2-one] : 1208.67
COC(=O)OC [dimethyl carbonate] : 1076.43

// field: mass density; key: CC1OC(C)OC(C)O1 (centres undefined) [2,4,6-trimethyl-1,3,5-trioxane] ; value = 999.69

* * *

- setup_conditions: 298.15 K; 101 kPa; Liquid; Linear variable-path acoustic interferometer
value_type: speed of sound (m/s)
The answer is to be given in m/s; state only the numeric part.

CC1OC(C)OC(C)O1 (centres undefined) : 1174.5
COC(=O)OC [dimethyl carbonate] : 1197.4
CCOC(=O)OCC [diethyl carbonate] : 1173.4

// field: speed of sound; key: CC1COC(=O)O1 (centres undefined) ; value = 1442.3
